# tested_system: Asp-1 (Homo sapiens)
# Sequence (Q9Y5Z0 63-518, species assumed): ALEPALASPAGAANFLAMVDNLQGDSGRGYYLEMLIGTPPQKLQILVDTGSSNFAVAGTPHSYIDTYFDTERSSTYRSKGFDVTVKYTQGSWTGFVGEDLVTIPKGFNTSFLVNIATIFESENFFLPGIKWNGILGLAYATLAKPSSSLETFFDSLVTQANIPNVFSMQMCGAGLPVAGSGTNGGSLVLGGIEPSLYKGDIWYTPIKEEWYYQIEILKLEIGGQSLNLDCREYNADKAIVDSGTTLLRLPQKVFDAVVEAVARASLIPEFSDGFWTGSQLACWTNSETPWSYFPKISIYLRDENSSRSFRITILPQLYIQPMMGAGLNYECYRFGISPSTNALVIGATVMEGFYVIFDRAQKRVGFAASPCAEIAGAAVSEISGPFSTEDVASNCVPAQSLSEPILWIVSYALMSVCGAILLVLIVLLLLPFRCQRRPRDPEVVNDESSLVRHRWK
pIC50: −log10 of the molar value.
experimental_readout: pIC50

[I] C[C@H](C[C@H](O)[C@H](Cc1ccccc1)NC(=O)c1ccc(F)c(N2CCCC2=O)c1)C(=O)NCCC(C)(C)C (stereo in doubt) [Example E1]
[II] C=CCOc1cc(C(=O)N[C@@H](Cc2ccccc2)[C@@H](O)C[C@@H](C)C(=O)NCCC(C)(C)C)cc(N2CCCC2=O)c1
[III] CCCOc1cc(C(=O)N[C@@H](Cc2ccccc2)[C@@H](O)C[C@@H](C)C(=O)NCCC(C)(C)C)cc(N2CCCC2=O)c1
Query: Order required: smallest reported pIC50 first, largest last, for all compounds above. Please, when replying, give the labels in the order that was requested.
Reply: I, II, III

###

# tested_system: Asp-2 (Homo sapiens)
# Sequence (P56817 46-501): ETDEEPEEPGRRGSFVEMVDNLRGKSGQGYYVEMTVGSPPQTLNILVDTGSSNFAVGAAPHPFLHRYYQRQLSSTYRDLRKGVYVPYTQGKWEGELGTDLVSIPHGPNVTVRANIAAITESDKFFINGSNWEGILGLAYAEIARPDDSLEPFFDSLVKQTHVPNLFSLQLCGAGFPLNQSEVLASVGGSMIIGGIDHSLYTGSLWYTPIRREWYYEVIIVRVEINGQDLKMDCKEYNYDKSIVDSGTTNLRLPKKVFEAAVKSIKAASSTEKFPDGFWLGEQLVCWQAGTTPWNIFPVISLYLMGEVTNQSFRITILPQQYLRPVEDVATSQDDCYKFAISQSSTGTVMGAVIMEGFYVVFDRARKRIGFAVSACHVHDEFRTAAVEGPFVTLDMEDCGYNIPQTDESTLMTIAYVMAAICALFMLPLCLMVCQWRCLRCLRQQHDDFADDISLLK
# experiment_description: Asp-2 Inhibitory Assay (FAM-[SEVNLDAEFK]-TAMRA substrate cleavage, fluorescence)
# Type: biochemical
# condition_set: Assay (I), pH 4.5, 1 h room temperature; read-out: Asp-2 IC50
experimental_readout: IC50 (µM)

[a] CCCOc1cc(C(=O)N[C@@H](Cc2ccccc2)[C@@H](O)C[C@@H](C)C(=O)NCCC(C)(C)C)cc(N2CCCC2=O)c1
[b] C[C@H](C[C@H](O)[C@H](Cc1ccccc1)NC(=O)c1ccc(F)c(N2CCCC2=O)c1)C(=O)NCCC(C)(C)C (stereo in doubt) [Example E1]
[c] C=CCOc1cc(C(=O)N[C@@H](Cc2ccccc2)[C@@H](O)C[C@@H](C)C(=O)NCCC(C)(C)C)cc(N2CCCC2=O)c1
Query: Sort key: IC50. Order: high to low. Scope: items listed above. Please, when replying, give the labels in the order that was requested.
Reply: b, c, a
(b: 0.6 µM, c: 0.06 µM, a: 0.035 µM)
